Header: IC50 / CTP synthase 1 (Homo sapiens, UniProt P17812) / multiple publications
quantity: IC50

> print(dat)
                                    compound                            targetorsystem   observedvalue
 1  O=C(NC1(c2csc(NS(=O)(=O)C3CC3)n2)CC1)c1cc2ccccc2cn1  CTP synthase 1 (Homo sapiens, UniProt P17812)       ≥ 1000 nM
 2  CCOc1cncc(-c2cnc(C(=O)N[C@H](C[C@@H]3CCCCN3)c3cc(NS(=O)(=O)C4CC4)ccn3)s2)n1 (single isomer, unassigned)  CTP synthase 1 (Homo sapiens, UniProt P17812)        < 100 nM
 3  CCOc1cncc(-c2cnc(C(=O)N[C@@H](CC3CCN(C)CC3)c3cc(NS(=O)(=O)C4CC4)ccn3)s2)n1  CTP synthase 1 (Homo sapiens, UniProt P17812)        < 100 nM
 4  CCOc1cncc(-c2ccc3c(c2)C(=O)N(Cc2cc(NS(=O)(=O)C4CC4)ccn2)C3=O)n1  CTP synthase 1 (Homo sapiens, UniProt P17812)  100 to 1000 nM
 5  O=C(NCc1cc(NS(=O)(=O)C2CC2)ccn1)c1ncc(-c2cnn3cc(Cl)ccc23)s1  CTP synthase 1 (Homo sapiens, UniProt P17812)  100 to 1000 nM
 6  CCOc1cncc(-c2ccc(C(=O)NC3(c4csc(N(C)S(=O)(=O)C5CC5)n4)CC3)nc2)n1  CTP synthase 1 (Homo sapiens, UniProt P17812)       ≥ 1000 nM
 7  CCC[C@@H]1CCN1c1ncc(C(=O)NCc2cc(NS(=O)(=O)C3CC3)ccn2)nc1C (single isomer, unassigned)  CTP synthase 1 (Homo sapiens, UniProt P17812)  100 to 1000 nM
 8  CCOc1cncc(-c2cnc(C(=O)N3CCNCC3c3ccnc(NS(=O)(=O)C4CC4)n3)s2)n1 (stereo not drawn)  CTP synthase 1 (Homo sapiens, UniProt P17812)  100 to 1000 nM
 9  CCOc1cncc(-c2ccc(C(=O)NCc3nccc(NS(=O)(=O)C4CC4)c3OC)c(F)c2)n1  CTP synthase 1 (Homo sapiens, UniProt P17812)        < 100 nM
10  CCOc1cncc(-c2ncc(C(=O)N3CCC[C@@H]3c3cccc(NS(=O)(=O)C(F)F)c3)s2)n1  CTP synthase 1 (Homo sapiens, UniProt P17812)        < 100 nM
11  CCC(NC(=O)c1ccc(-c2cncc(C)c2)cc1)c1csc(NS(=O)(=O)C2CC2)n1 (racemic)  CTP synthase 1 (Homo sapiens, UniProt P17812)  100 to 1000 nM
12  CCOc1cncc(-c2cnc(C(=O)NC(CN3CCCC3)c3cc(NS(=O)(=O)C4CC4)ccn3)s2)n1 (stereo not drawn)  CTP synthase 1 (Homo sapiens, UniProt P17812)        < 100 nM
13  CCOc1cncc(-c2ccc(NC(=O)C3(c4ccnc(NS(=O)(=O)C5CC5)n4)CCN(C(=O)NC(C)C)CC3)nc2)n1  CTP synthase 1 (Homo sapiens, UniProt P17812)        ≤ 100 nM
14  Cc1cc2c(=O)[nH]c3ccc(C(=O)NCc4cc(NS(=O)(=O)C5CC5)ccn4)cc3n2c1  CTP synthase 1 (Homo sapiens, UniProt P17812)  100 to 1000 nM
15  CCOc1cncc(-n2cnc(C(=O)N3CCC[C@@H]3c3ccnc(NS(=O)(=O)C4CC4)n3)c2)n1  CTP synthase 1 (Homo sapiens, UniProt P17812)       ≥ 1000 nM
16  CCOc1cncc(-c2cnc(C(=O)N[C@H](CCN(C)C)c3cc(NS(=O)(=O)C4CC4)ccn3)s2)n1  CTP synthase 1 (Homo sapiens, UniProt P17812)        < 100 nM
17  CCOc1cncc(-n2ccc(C(=O)N3CCC[C@@H]3c3cccc(NS(=O)(=O)C(F)F)c3)n2)n1  CTP synthase 1 (Homo sapiens, UniProt P17812)       ≥ 1000 nM
18  CCOc1cncc(-c2ccc(NC(=O)C3(c4ccnc(NS(=O)(=O)CC(C)C)n4)CCOCC3)nc2)n1  CTP synthase 1 (Homo sapiens, UniProt P17812)  100 to 1000 nM
19  CCOC[C@@H](NC(=O)c1ncc(-c2cncc(OCC)n2)s1)c1cc(NS(=O)(=O)C2CC2)ccn1  CTP synthase 1 (Homo sapiens, UniProt P17812)        < 100 nM
20  CC(C)(NC(=O)c1ccc(-c2cncc(C(F)(F)F)n2)cc1)c1csc(NS(=O)(=O)C2CC2)n1  CTP synthase 1 (Homo sapiens, UniProt P17812)        < 100 nM
21  O=C(NCc1cc(NS(=O)(=O)C2CC2)ccn1)c1ncc(-c2cnn3ccc(Cl)cc23)s1  CTP synthase 1 (Homo sapiens, UniProt P17812)        < 100 nM
